# reported pIC50; entries follow
Target: HIV-1 RT-associated RDDP activity (Human immunodeficiency virus type 1 group M subtype B, UniProt P04585)
Construct: His-tagged p66/p51 HIV-1 RT; His tag
Test: RDDP assay (Enz-Check Reverse Transcriptase Assay Kit)
Conditions: concentration required to inhibit the HIV-1 RDDP activity by 50%
// pIC50: -log10(molar conc.)

In [3]: df
Out[3]:
                                   molecule  result
0  C=C(C)C(O)CC/C(C)=C/Cc1c(O)cc(O)c(C(=O)C(C)CC)c1O (stereo not shown)    4.71

Sure, the documented pIC50 for Oc1cc(O)c(CC(O)C(O)c2ccc(O)c(O)c2)c(O)c1 (stereo not shown) is 4.04

For record `C[C@@H]1O[C@@H](Oc2c(-c3ccc(O)c(O)c3)oc3cc(O)cc(O)c3c2=O)[C@H](O)[C@H](O)[C@H]1O` the listed pIC50 is 5.01

----------
Each entry below carries its reported IC50.
Biological target: HIV-1 RT-associated RNase H activity (Human immunodeficiency virus type 1 group M subtype B)
Construct: His-tagged p66/p51 HIV-1 RT; His tag
Assay: RNase H polymerase-independent cleavage assay
Settings: concentration required to inhibit the HIV-1 RNase H activity by 50%
Give just the number in µM; leave the unit off.

In the examples that follow, each entry is paired with its recorded IC50.
>>> print(df.to_string())
                                   compound  result
0  Oc1cc(O)c(CC(O)C(O)c2ccc(O)c(O)c2)c(O)c1 (centres unmarked)      93
1  CCOC(=O)C(=O)CC(=O)/C=C/c1cccn1Cc1ccccc1Cl [RDS 1759, reference compound]     7.3
2  C=C(C)C(O)CC/C(C)=C/Cc1c(O)cc(O)c(C(=O)C(C)CC)c1O (centres unmarked)     9.1

Please turn your attention to the following entry.
Given item `C[C@@H]1O[C@@H](Oc2c(-c3ccc(O)c(O)c3)oc3cc(O)cc(O)c3c2=O)[C@H](O)[C@H](O)[C@H]1O` , the value recorded as its IC50 is 6.3

----------
Assay: Cell toxicity, metabolic XTT test
Format: cell-based, human
Conditions: human; TZM-bl cells, XTT; read-out: CC50, TZM-bl cell viability
MEASURED_METRIC: CC50

For this compound ( C=C(C)C(O)CC/C(C)=C/Cc1c(O)cc(O)c(C(=O)C(C)CC)c1O (stereo not shown) ), measured CC50 is > 50 µM

----------
As shown below, each of these compounds has a reported IC50 value.
Molecular target: HIV-1 IN in the presence of LEDGF/p75 (Human immunodeficiency virus type 1 group M subtype B, UniProt P04585)
Construct: Full-length IN and LEDGF proteins were expressed in E. coli BL21 (DE3)
Assay: HTRF LEDGF dependent integrase assay
Settings: IN catalytic activities in the presence of LEDGF/p75
Field: numeric (µM). Do not append units.

Consider the reported IC50 for these compounds:
>>> print(df.to_string())
                                   compound  result
0  C[C@@H]1O[C@@H](Oc2c(-c3ccc(O)c(O)c3)oc3cc(O)cc(O)c3c2=O)[C@H](O)[C@H](O)[C@H]1O     1.6
1  Oc1cc(O)c(CC(O)C(O)c2ccc(O)c(O)c2)c(O)c1 (stereo not shown)     6.4

Query compound follows.
Entry C=C(C)C(O)CC/C(C)=C/Cc1c(O)cc(O)c(C(=O)C(C)CC)c1O (stereo not shown) ; IC50 = 13
